Assay: Cmax in Sprague-Dawley rat at 10 mg/kg, ip measured after 24 hrs by LC-MS/MS analysis
Type: ADME, organism-based
Conditions: in vivo

{"columns": ["COMPOUND", "Cmax"],
 "data": [
  ["CC1CC(C)CN(Cc2cc3c(cc2-c2cc4ccc5c(c4cn2)OCO5)OCO3)C1 (configuration not stated)", "145 ng/mL"],
  ["CCC1CCCC(C)N1Cc1cc2c(cc1-c1cc3ccc4c(c3cn1)OCO4)OCO2 (configuration not stated)", "228 ng/mL"]
]}

----------
Documented IC50 at 72 h across a set of compounds
Assay: Antiproliferative activity against human BEAS-2B cells incubated for 72 hrs
Assay type: toxicity, cell-based

{"columns": ["COMPOUND", "DISPLAY UNIT", "CENSOR SYMBOL", "IC50 at 72 h"],
 "data": [
  ["FC1(F)C2CCN(Cc3cc4c(cc3-c3cc5ccc6c(c5cn3)OCO6)OCO4)CC21 (stereo not given)", "µM", "=", 10.3],
  ["OCCCC1CCN(Cc2cc3c(cc2-c2cc4ccc5c(c4cn2)OCO5)OCO3)CC1", "µM", "=", 24.8],
  ["CC[C@@]1(O)C(=O)OCc2c1cc1n(c2=O)Cc2cc3c(CN(C)C)c(O)ccc3nc2-1 [TOPOTECAN]", "µM", "<", 0.07],
  ["CC1(O)CCN(Cc2cc3c(cc2-c2cc4ccc5c(c4cn2)OCO5)OCO3)C1 (stereo not given)", "µM", "=", 39.7],
  ["NC(=O)C1CCN(Cc2cc3c(cc2-c2cc4ccc5c(c4cn2)OCO5)OCO3)CC1", "µM", "=", 28.8]
]}
